Numbers sourced from patent US20230065740A1.

- SYSTEM TESTED: CDK4-CYCLIND1 (Homo sapiens)
- EXPERIMENT: Microfluidic LabChip kinase inhibition assay, CDK4-CyclinD1
- PARTICULARS: CDK4 IC50 (μM), Table 2; 200 μM ATP, 1 nM enzyme
ATTRIBUTE MEASURED: log10 of IC50 (log10 of the value in µM)
Scale type: logarithmic (base 10). Underlying IC50 unit: µM.

Some solved cases for reference:
CN1CCN(c2ccc(Nc3ncc4c(n3)N(C3CCCC3)C3(CCCN(Cc5ccccc5)C3=O)C4)cc2F)CC1 (stereo not shown) :: 0.47
CN1CCN(c2ccc(Nc3ncc4c(n3)N(C3CCCC3)C3(CCN(Cc5ccccc5)C3=O)C4)cc2)CC1 (stereo not shown) :: 1.09
O=C1NCCC12Cc1cnc(Nc3cc(C(F)(F)F)c(N4CCNCC4)cn3)nc1N2C1CCCC1 (stereo not shown) :: 1.27

Your task in this section: give log10 of IC50 for each listed record.
1. COc1ccc(CN2CCC3(Cc4cnc(Nc5ccc(N6CCN(C(C)C)CC6)cn5)nc4N3C3CCCC3)C2=O)cc1 (stereo not shown)
2. CN1CCN(c2ccc(Nc3ncc4c(n3)N(C3CCCC3)C3(CCNC3=O)C4)cn2)CC1 (stereo not shown)
3. O=C1CC2(Cc3cnc(Nc4ccc(N5CCNCC5)cc4)nc3N2C2CCCC2)C(=O)N1 (stereo not shown)
4. CN1CCN(c2ccc(Nc3ncc4c(n3)N(C3CCCC3)C3(CCNC3=O)C4)cc2F)CC1 (stereo not shown)
5. O=C1NCCC12Cc1cnc(Nc3ccc(N4CCC(N5CCOCC5)CC4)c(F)c3)nc1N2C1CCCC1 (stereo not shown)
6. COc1ccc(CN2CCC3(Cc4cnc(Nc5ccc(OCCN(C)C)cn5)nc4N3C3CCCC3)C2=O)cc1 (stereo not shown)
7. CC(C)N1CCN(c2ccc(Nc3ncc4c(n3)N(C3CCCC3)C3(CC(=O)NC3=O)C4)cn2)CC1 (stereo not shown)
8. CN1CCN(c2ccc(Nc3ncc4c(n3)N(C3CCCC3)C3(CCNC3=O)C4)cc2)CC1 (stereo not shown)

[0.86, -1.03, -1.60, -1.79, -1.13, 1.02, -1.31, -0.98]

###

- SYSTEM TESTED: CDK4-CYCLIND1 (Homo sapiens, UniProt P11802)
- Sequence (P11802 whole entry): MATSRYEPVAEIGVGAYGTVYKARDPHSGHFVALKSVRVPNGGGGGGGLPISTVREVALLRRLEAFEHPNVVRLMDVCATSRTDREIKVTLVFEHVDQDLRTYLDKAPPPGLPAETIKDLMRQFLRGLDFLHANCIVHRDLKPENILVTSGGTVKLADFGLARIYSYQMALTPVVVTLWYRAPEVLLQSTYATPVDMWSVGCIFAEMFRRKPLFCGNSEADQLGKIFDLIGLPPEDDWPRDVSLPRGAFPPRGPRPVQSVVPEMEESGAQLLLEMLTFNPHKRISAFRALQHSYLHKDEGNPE
- Sequence (P24385 whole entry partner): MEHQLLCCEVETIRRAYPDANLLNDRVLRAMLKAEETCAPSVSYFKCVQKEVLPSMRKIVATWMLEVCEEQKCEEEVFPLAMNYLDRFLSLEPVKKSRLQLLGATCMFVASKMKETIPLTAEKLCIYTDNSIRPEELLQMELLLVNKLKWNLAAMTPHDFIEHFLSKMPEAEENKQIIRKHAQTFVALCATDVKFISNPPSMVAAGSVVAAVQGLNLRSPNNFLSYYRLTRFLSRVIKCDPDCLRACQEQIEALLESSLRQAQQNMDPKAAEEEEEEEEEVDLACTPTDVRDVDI
- EXPERIMENT: Microfluidic LabChip kinase inhibition assay, CDK4-CyclinD1
- PARTICULARS: CDK4 IC50 (μM), Table 2; 200 μM ATP, 1 nM enzyme
ATTRIBUTE MEASURED: IC50 (µM)
One number for each entry, in µM.

Some solved cases for reference:
CC(C)N1CCN(c2ccc(Nc3ncc4c(n3)N(C3CCCC3)C3(CC(=O)NC3=O)C4)cc2)CC1 (centres unmarked) :: 0.021
CN1CCN(c2ccc(Nc3ncc4c(n3)N(C3CCCC3)C(=O)C43CCNC3=O)nc2)CC1 (centres unmarked) :: 13.7
CC(C)N1CCN(c2ccc(Nc3ncc4c(n3)N(C3CCCC3)C3(CCNC3=O)C4)cn2)CC1 (centres unmarked) :: 0.053
CN(C)CCOc1ccc(Nc2ncc3c(n2)N(C2CCCC2)C2(CC(=O)NC2=O)C3)cc1 (centres unmarked) :: 0.143
O=C1CC2(Cc3cnc(Nc4ccc(N5CCNCC5)nc4)nc3N2C2CCCC2)C(=O)N1 (centres unmarked) :: 0.0516

// moving on: another record for IC50
Need IC50, item O=C1NCCC12Cc1cnc(Nc3ccc(N4CCOCC4)c(F)c3)nc1N2C1CCCC1 (centres unmarked)
0.222
